These data points were gathered from PubChem BioAssay (NCI).

Test system: EKVX NSCLC
Assay: NCI-60 one-dose screen, 48 h (100 = growth as untreated, 0 = no growth, -100 = all killed)
Conditions: 10 µM unless noted
The panel holds about 83,000 compounds, 20% with a hit somewhere; the sample as a whole holds those more often.
experimental readout: growth (%)
Just the number please, in %, no unit attached.

Solved entries:
- molecule: "O=C1c2cccc3cccc(c23)C(=O)N1CC#Cc1ccc2c3c(cccc13)C(=O)N(CCO)C2=O"
  growth (%): 76.3
- molecule: "N#CC1C(=N)Cc2ccccc2-c2ccccc21 (centres undefined)"
  growth (%): 67.1
- molecule: "CCOC(=O)N1CCN(CCCCOc2ccc(C(C)(C)CC)cc2)CC1"
  growth (%): 99.1

# evaluate next
Incoming: Please give the measured growth for this molecule: COc1cccc(-c2nn(-c3ccccc3)cc2-c2ccnc(NCCCNS(=O)(=O)c3ccc(C(F)(F)F)cc3)c2)c1
Outgoing: 46.5
